value type: AC50

Q) Lab request: please report AC50 under test system Cytochrome P450 3A4 (Homo sapiens) for O=C(Nc1cccc(F)c1)N1CCC2(CC1)CCN(C(=O)c1ccncc1)CC2
A) 12.6 µM (inconclusive)

Q) Lab request: please report AC50 under test system Cytochrome P450 3A4 (Homo sapiens) for CCOC(=O)N1CCN(C(=O)c2ccc3nc(SCc4ccc(F)cc4)n(C)c3c2)CC1
A) 39.8 µM (inconclusive)

Q) Lab request: please report AC50 under test system Cytochrome P450 3A4 (Homo sapiens) for CCOc1ccc(C2=Nn3c(nnc3-c3ccco3)SC2)cc1
A) 15.8 µM (inconclusive)

Q) Lab request: please report AC50 under test system Cytochrome P450 3A4 (Homo sapiens) for Cc1cc(NC(=O)CSc2ccc3nnc(-c4ccc(F)cc4)n3n2)no1
A) 14.1 µM (inconclusive)

Q) Lab request: please report AC50 under test system Cytochrome P450 3A4 (Homo sapiens) for COc1cc2c(cc1OC)[C@]13CC[N@+]4(C)CC5=CCO[C@H]6CC(=O)N2[C@@H]1[C@@H]6[C@@H]5C[C@]34O
A) 1 µM (inconclusive)

Q) Lab request: please report AC50 under test system Cytochrome P450 3A4 (Homo sapiens) for COc1cccc(Cn2c(=O)c(-c3cccc(F)c3)nc3cncnc32)c1
A) 7.94 µM (inconclusive)

Q) Lab request: please report AC50 under test system Cytochrome P450 3A4 (Homo sapiens) for CSC1=N/C(=C\c2ccc3c(c2)OCO3)C(=O)S1
A) 7.94 µM (inconclusive)

Q) Lab request: please report AC50 under test system Cytochrome P450 3A4 (Homo sapiens) for O=c1c2c(n3cnnc3n1-c1ccccc1)-c1ccccc1CC21CCCCC1
A) 15.8 µM (inconclusive)

Q) Lab request: please report AC50 under test system Cytochrome P450 3A4 (Homo sapiens) for N#Cc1cccc(-c2nc(Nc3ccncc3)c3ccccc3n2)c1
A) 0.501 µM (inconclusive)

Q) Lab request: please report AC50 under test system Cytochrome P450 3A4 (Homo sapiens) for CN(C)Cc1ccccc1-c1nccc(N(C)Cc2ccco2)n1
A) 31.6 µM (inconclusive)

Q) Lab request: please report AC50 under test system Cytochrome P450 3A4 (Homo sapiens) for O=C(NCCNS(=O)(=O)c1ccc(Cl)cc1)c1cc(OCC(F)(F)F)ccc1OCC(F)(F)F
A) 7.08 µM (inconclusive)

Q) Lab request: please report AC50 under test system Cytochrome P450 3A4 (Homo sapiens) for CC[C@@]1(O)C(=O)COc2c1cc1n(c2=O)Cc2c-1nc1cccc(C(C)C)c1c2[Si](C)(C)C
A) 15.8 µM (inconclusive)

Q) Lab request: please report AC50 under test system Cytochrome P450 3A4 (Homo sapiens) for CCCCCCCCSc1nnc(CSc2nc3nc(C)cc(C)n3n2)o1
A) 35.5 µM (inconclusive)

Q) Lab request: please report AC50 under test system Cytochrome P450 3A4 (Homo sapiens) for CO[C@@H]1/C=C\CC(=O)N[C@@H](C)C(=O)OC[C@@H](OC)[C@H](C)/C=C\CC(=O)OC[C@H]1C;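 also: CYP3A4 tested as one member of a cytochrome P450 panel screen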
A) 3.98 µM (inconclusive)
